Assay: Particle size by dynamic light scattering / laser diffraction
Format: physicochemical
Conditions: DLS, dispersed in mineral oil, room temperature
For each record, write down the corresponding Mean particle size.
Give your result as the value with the unit written after it.

// for each compound in input: emit Mean particle size
1. CC(C)c1c(C(=O)Nc2ccccc2)c(-c2ccccc2)c(-c2ccc(F)cc2)n1CC[C@@H](O)C[C@@H](O)CC(=O)[O-].CC(C)c1c(C(=O)Nc2ccccc2)c(-c2ccccc2)c(-c2ccc(F)cc2)n1CC[C@@H](O)C[C@@H](O)CC(=O)[O-].[Ca+2] [Example 18, atorvastatin calcium]
2. CC(C)c1c(C(=O)Nc2ccccc2)c(-c2ccccc2)c(-c2ccc(F)cc2)n1CC[C@@H](O)C[C@@H](O)CC(=O)[O-].CC(C)c1c(C(=O)Nc2ccccc2)c(-c2ccccc2)c(-c2ccc(F)cc2)n1CC[C@@H](O)C[C@@H](O)CC(=O)[O-].[Ca+2] [Example 25, atorvastatin calcium]

Solution:
155 nm
65 nm

Numbers sourced from patent US20090124817A1.
